Catalogue of glycan array binding signal (z-score) readings, one per entry.
# System Tested: Gal(b1-3)[GlcNAc(b1-6)]GalNAc
# Procedure Details: glycan array binding signal (z-score within array); higher = stronger binding
# Applied Conditions: glycan notation: IUPAC condensed, linker removed
The entries come from a sample that favours the strongest signals as a whole.

Here are 2 binders together with their reported answers.
Binder: MpAFP NterminalRI GFP (Marinomonas primoryensis) (protein) MSDNQFPFATLGNAIGFITKLDGSVTVQSIDGQERVLKLGDPIFFGETVLTGGSGSVTIAFVDGTDVVIGGDSIVEMTDEIYNTGDNEDLVADSSSEIDALQNAILAGDDPTLIQDAPAAGNTLADQQRVDVSIERNDNSAQAGFGVDTQSSLPTYGYDTDNGNGGQATEREYSAPSLSRTLNQSPLLEHHHHHH
glycan array binding signal (z-score): -0.473
--
Binder: HPA (Helix pomatia), Q575S3 (protein) MWAHLTGLLLICALSLSAAQRAQTGEIDCGSDSSWPKDPSDNPNRDNTREIVKHVTFSPQFCREPKVILSVTTLDAEHTKNLRYEARLKSVSPSGLSASCYSWHDGTIYRMKLSWLAVED
glycan array binding signal (z-score): -0.265

What measured glycan array binding signal (z-score) goes with LSECtin (Homo sapiens), Q6UXB4 (protein) MDTTRYSKWGGSSEEVPGGPWGRWVHWSRRPLFLALAVLVTTVLWAVILSILLSKASTERAALLDGHDLLRTNASKQTAALGALKEEVGDCHSCCSGTQAQLQTTRAELGEAQAKLMEQESALRELRERVTQGLAEAGRGREDVRTELFRALEAVRLQNNSCEPCPTSWLSFEGSCYFFSVPKTTWAAAQDHCADASAHLVIVGGLDEQGFLTRNTRGRGYWLGLRAVRHLGKVQGYQWVDGVSLSFSHWNQGEPNDAWGRENCVMMLHTGLWNDAPCDSEKDGWICEKRHNC ? 0.004

Hello, the source for this data is the supplement of paper PMC8728848, in case you need it.
